test: in vivo; settings: male, SD, rat, plasma, po, 500 mg/kg
observed_property: Cmax (ng/mL)

line_notation | readout_units | measured
CN(C)C(=N)N=C(N)N | ng/mL | 20200
